Measured values drawn from patent US12377035B2 for this set.

- Test system: human epidermal keratinocytes (HEKa)
- Test method notes: MTT cell viability assay on epidermal keratinocytes
- Format: cell-based
- Condition: HEKa, 5 μM, 24 hours
Metric name: % inhibition cell viability (%)
Give the number; % is assumed, so skip it.

Substance: Ac-MQVWLRMWIDYRAT-NH2 [SEQ ID NO: 2 acetyl, MQVWLRMWIDYRAT]
Target or system: human epidermal keratinocytes (HEKa)
% inhibition cell viability, %: −1.8
//
Substance: Ac-LRVQMVNMFL-NH2 [SEQ ID NO: 4 acetyl, LRVQMVNMFL]
Target or system: human epidermal keratinocytes (HEKa)
% inhibition cell viability, %: 2.6
//
Substance: Ac-WEQEFLRR-NH2 [SEQ ID NO: 5 acetyl, WEQEFLRR]
Target or system: human epidermal keratinocytes (HEKa)
% inhibition cell viability, %: 0.8

For the substance Ac-HYWRELQYR-NH2 [SEQ ID NO: 1 acetyl, HYWRELQYR] , the measured % inhibition cell viability on human epidermal keratinocytes (HEKa) was 8.8

* * *

Attribute: % inhibition cell viability
- System: human epidermal keratinocytes (HEKa)
- Test method notes: MTT cell viability assay on epidermal keratinocytes
- Type: cell-based
- Condition: HEKa, 100 μM, 24 hours
Expressed in %, but write only the number.

Example results:
Substance: Ac-MQVWLRMWIDYRAT-NH2 [SEQ ID NO: 2 acetyl, MQVWLRMWIDYRAT]
% inhibition cell viability [%]: −0.7

Substance: Ac-HYWRELQYR-NH2 [SEQ ID NO: 1 acetyl, HYWRELQYR]
% inhibition cell viability [%]: 6.2

Substance: Ac-WEQEFLRR-NH2 [SEQ ID NO: 5 acetyl, WEQEFLRR]
% inhibition cell viability [%]: 10.4

For the next question, use this substance.
% inhibition cell viability for Ac-LRVQMVNMFL-NH2 [SEQ ID NO: 4 acetyl, LRVQMVNMFL] is 31.6

* * *

- System: human epidermal keratinocytes (HEKa)
- Test method notes: MTT cell viability assay on epidermal keratinocytes
- Format: cell-based
- Condition: HEKa, 200 μM, 24 hours
Metric name: % inhibition cell viability (%)
Write it as a number; the unit % goes unstated.

For record Ac-HYWRELQYR-NH2 [SEQ ID NO: 1 acetyl, HYWRELQYR] the listed % inhibition cell viability is 9.5

Briefly, % inhibition cell viability measured for Ac-LRVQMVNMFL-NH2 [SEQ ID NO: 4 acetyl, LRVQMVNMFL] : 41.1

% inhibition cell viability for Ac-MQVWLRMWIDYRAT-NH2 [SEQ ID NO: 2 acetyl, MQVWLRMWIDYRAT] is 1.2

The measured % inhibition cell viability associated with Ac-WEQEFLRR-NH2 [SEQ ID NO: 5 acetyl, WEQEFLRR] reads 23.7

* * *

- System: human epidermal keratinocytes (HEKa)
- Test method notes: MTT cell viability assay on epidermal keratinocytes
- Assay type: cell-based
- Condition: HEKa, 10 μM, 24 hours
- Experimental: This example evaluated effects of the peptides of invention on human epidermal keratinocytes and dermal fibroblasts. Cell viability was determined with the 3-(4,5-dimethyl-2-thiazolyl)-2,5-diphenyl-2H-tetrazolium bromide (MTT) assay. […] Plate was protected from light, shaken for 60 seconds and optical density was measured at 570 nm with a reference filter of 620 nm. Table F details effects of peptides of invention on keratinocytes and fibroblasts cell viability expressed as percentage of inhibition.
Metric name: % inhibition cell viability (%)
Please give a number only; it is taken to be in %.

Substance: Ac-HYWRELQYR-NH2 [SEQ ID NO: 1 acetyl, HYWRELQYR]
Readout unit: %
% inhibition cell viability: 1.7

According to the records, this substance Ac-LRVQMVNMFL-NH2 [SEQ ID NO: 4 acetyl, LRVQMVNMFL] displays % inhibition cell viability of 6.0

// % inhibition cell viability lookup, substance = Ac-WEQEFLRR-NH2 [SEQ ID NO: 5 acetyl, WEQEFLRR] , result: 4.2

// % inhibition cell viability lookup, substance = Ac-MQVWLRMWIDYRAT-NH2 [SEQ ID NO: 2 acetyl, MQVWLRMWIDYRAT] , result: −0.5

* * *

- Tested on: acetylcholine release, human neuroblastoma cell line differentiated to cholinergic neuronal phenotype
- Test method notes: Inhibition of KCl-induced acetylcholine release in a neuroblastoma cell line (Amplex Red)
- Format: cell-based
- Condition: TFA salt, 5 μM; 50 mM KCl
Residues, ends and D or L forms follow the SMILES beside them. *: point of attachment. Palmitoyl = CCCCCCCCCCCCCCCC(=O)*
Metric name: % Ach release inhibition (%)
Respond with the bare value in %.

Please review the following examples before continuing.
Molecule: CCCCCCCCCCCCCCCC(=O)N[C@@H](Cc1c[nH]c2ccccc12)C(=O)N[C@@H](CCC(=O)O)C(=O)N[C@@H](CCC(N)=O)C(=O)N[C@@H](CCC(=O)O)C(=O)N[C@@H](Cc1ccccc1)C(=O)N[C@@H](CC(C)C)C(=O)N[C@@H](CCCNC(=N)N)C(=O)N[C@@H](CCCNC(=N)N)C(N)=O [SEQ ID NO: 5 palmitoyl, WEQEFLRR] (Palmitoyl-WEQEFLRR-NH2)
Readout unit: %
% Ach release inhibition: 25.1

Molecule: CCCCCCCCCCCCCCCC(=O)N[C@@H](Cc1c[nH]cn1)C(=O)N[C@@H](Cc1ccc(O)cc1)C(=O)N[C@@H](Cc1c[nH]c2ccccc12)C(=O)N[C@@H](CCCNC(=N)N)C(=O)N[C@@H](CCC(=O)O)C(=O)N[C@@H](CC(C)C)C(=O)N[C@@H](CCC(N)=O)C(=O)N[C@@H](Cc1ccc(O)cc1)C(=O)N[C@@H](CCCNC(=N)N)C(N)=O [SEQ ID NO: 1 palmitoyl, Palm-HYWRELQYR-NH2] (Palmitoyl-HYWRELQYR-NH2)
Readout unit: %
% Ach release inhibition: 7.9

Looking up CCCCCCCCCCCCCCCC(=O)N[C@@H](CCCNC(=N)N)C(=O)N[C@@H](CCCNC(=N)N)C(=O)N[C@H](C(=O)N[C@H](C(=O)N[C@@H](CC(C)C)C(=O)N[C@H](C(=O)N[C@@H](CC(N)=O)C(=O)N[C@@H](CC(N)=O)C(=O)N[C@H](C(=O)N[C@@H](CC(C)C)C(N)=O)[C@@H](C)CC)C(C)C)C(C)C)C(C)C [SEQ ID NO: 3 palmitoyl, RRVVLVNNIL] (Palmitoyl-RRVVLVNNIL-NH2) , I found its % Ach release inhibition recorded as 75.4

* * *

Recorded % inhibition cell viability for the following substances
- Tested on: human epidermal keratinocytes (HEKa)
- Test method notes: MTT cell viability assay on epidermal keratinocytes
- Format: cell-based
- Condition: HEKa, 50 μM, 24 hours
Respond with the bare value in %.

Substance: Ac-WEQEFLRR-NH2 [SEQ ID NO: 5 acetyl, WEQEFLRR]
Readout unit: %
% inhibition cell viability: 4.3

Substance: Ac-HYWRELQYR-NH2 [SEQ ID NO: 1 acetyl, HYWRELQYR]
Readout unit: %
% inhibition cell viability: 7.4

Substance: Ac-MQVWLRMWIDYRAT-NH2 [SEQ ID NO: 2 acetyl, MQVWLRMWIDYRAT]
Readout unit: %
% inhibition cell viability: −4.6

As a next step, examine the substance that follows.
Field % inhibition cell viability (entry Ac-LRVQMVNMFL-NH2 [SEQ ID NO: 4 acetyl, LRVQMVNMFL] ) reads 19.5

* * *

Recorded % Ach release inhibition for the following compounds
- Tested on: acetylcholine release, human neuroblastoma cell line differentiated to cholinergic neuronal phenotype
- Test method notes: Inhibition of KCl-induced acetylcholine release in a neuroblastoma cell line (Amplex Red)
- Assay type: cell-based
- Condition: TFA salt, 50 μM; 50 mM KCl
Residues, ends and D or L forms follow the SMILES beside them. *: point of attachment. Palmitoyl = CCCCCCCCCCCCCCCC(=O)*
Note: unit % is implicit; provide only the numeric part.

Compound: CCCCCCCCCCCCCCCC(=O)N[C@@H](Cc1c[nH]c2ccccc12)C(=O)N[C@@H](CCC(=O)O)C(=O)N[C@@H](CCC(N)=O)C(=O)N[C@@H](CCC(=O)O)C(=O)N[C@@H](Cc1ccccc1)C(=O)N[C@@H](CC(C)C)C(=O)N[C@@H](CCCNC(=N)N)C(=O)N[C@@H](CCCNC(=N)N)C(N)=O [SEQ ID NO: 5 palmitoyl, WEQEFLRR] (Palmitoyl-WEQEFLRR-NH2)
Value measured: 17.9

Form field % Ach release inhibition, entry CCCCCCCCCCCCCCCC(=O)N[C@@H](Cc1c[nH]cn1)C(=O)N[C@@H](Cc1ccc(O)cc1)C(=O)N[C@@H](Cc1c[nH]c2ccccc12)C(=O)N[C@@H](CCCNC(=N)N)C(=O)N[C@@H](CCC(=O)O)C(=O)N[C@@H](CC(C)C)C(=O)N[C@@H](CCC(N)=O)C(=O)N[C@@H](Cc1ccc(O)cc1)C(=O)N[C@@H](CCCNC(=N)N)C(N)=O [SEQ ID NO: 1 palmitoyl, Palm-HYWRELQYR-NH2] (Palmitoyl-HYWRELQYR-NH2) : 75.9

Record CCCCCCCCCCCCCCCC(=O)N[C@@H](CC(C)C)C(=O)N[C@@H](CCCNC(=N)N)C(=O)N[C@H](C(=O)N[C@@H](CCC(N)=O)C(=O)N[C@@H](CCSC)C(=O)N[C@H](C(=O)N[C@@H](CC(N)=O)C(=O)N[C@@H](CCSC)C(=O)N[C@@H](Cc1ccccc1)C(=O)N[C@@H](CC(C)C)C(N)=O)C(C)C)C(C)C [SEQ ID NO: 4 palmitoyl, LRVQMVNMFL] (Palmitoyl-LRVQMVNMFL-NH2) . Reported % Ach release inhibition: 83.0

// CCCCCCCCCCCCCCCC(=O)N[C@@H](CCCNC(=N)N)C(=O)N[C@@H](CCCNC(=N)N)C(=O)N[C@H](C(=O)N[C@H](C(=O)N[C@@H](CC(C)C)C(=O)N[C@H](C(=O)N[C@@H](CC(N)=O)C(=O)N[C@@H](CC(N)=O)C(=O)N[C@H](C(=O)N[C@@H](CC(C)C)C(N)=O)[C@@H](C)CC)C(C)C)C(C)C)C(C)C [SEQ ID NO: 3 palmitoyl, RRVVLVNNIL] (Palmitoyl-RRVVLVNNIL-NH2) : % Ach release inhibition value = 82.8
